- target or test system: GLP-1R (Homo sapiens)
- Sequence (P43220 24-463): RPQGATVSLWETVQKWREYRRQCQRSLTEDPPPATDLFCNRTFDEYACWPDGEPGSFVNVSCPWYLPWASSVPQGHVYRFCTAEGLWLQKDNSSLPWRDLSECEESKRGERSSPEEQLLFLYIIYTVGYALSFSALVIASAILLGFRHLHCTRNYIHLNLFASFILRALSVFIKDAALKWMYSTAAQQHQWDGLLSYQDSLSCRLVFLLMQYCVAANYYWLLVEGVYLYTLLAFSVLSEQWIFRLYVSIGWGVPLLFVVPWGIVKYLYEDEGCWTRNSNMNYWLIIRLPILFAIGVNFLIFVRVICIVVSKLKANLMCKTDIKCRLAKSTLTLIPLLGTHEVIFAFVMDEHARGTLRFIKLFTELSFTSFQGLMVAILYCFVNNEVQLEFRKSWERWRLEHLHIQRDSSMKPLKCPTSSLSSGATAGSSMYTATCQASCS
- test: GLP-1R activation: cAMP increase in CHO cells stably expressing GLP-1R
- Assay type: cell-based
- test context: cAMP increase, CHO cells stably expressing GLP-1R, 10 point dose response, 30 minutes incubation; read-out: EC50
Please respond with reported pEC50 for every item in the list.
Keep it numeric: pEC50 is minus log10 of the concentration in mol/L.

[in] Report pEC50 under test system GLP-1R (Homo sapiens) for `COCCn1c(Cc2ccc(-c3cccc(OCc4ccc(C#N)cc4F)n3)cc2F)nc2cc(C(=O)O)ccc21` .
[out] 7.70

[in] GET pEC50 where system = GLP-1R (Homo sapiens) and item = `COCCn1c(Cc2ccc(-c3cccc(OCc4ccc(C5(F)COC5)cc4)n3)cc2F)nc2ccc(C(=O)O)cc21`
[out] 7.81

[in] Write down measured pEC50 (GLP-1R (Homo sapiens)) for this molecule. `N#Cc1ccc(COc2nccc(-c3cc(F)c(Cc4nc5ccc(C(=O)O)cc5n4C[C@@H]4CCO4)c(F)c3)n2)c(F)c1`
[out] 9.18

[in] Report value: pEC50, system: GLP-1R (Homo sapiens), molecule: `O=C(O)c1ccc2nc(Cc3cc(F)c(-c4nc(OCc5ccc(C(F)F)cc5F)ccc4F)cc3F)n(C[C@@H]3CCO3)c2c1`
[out] 10.10

[in] Send back GLP-1R (Homo sapiens) pEC50 of `C[C@H](C1CC1)n1c(Cc2ccc(-c3cccc(OCc4ccc(C#N)cc4F)n3)cc2F)nc2ccc(C(=O)O)cc21` only.
[out] 8.17
